Target: Muscarinic acetylcholine receptor M1 (Homo sapiens, UniProt P11229); note: assay procedure not described here
Sequence (P11229 whole entry): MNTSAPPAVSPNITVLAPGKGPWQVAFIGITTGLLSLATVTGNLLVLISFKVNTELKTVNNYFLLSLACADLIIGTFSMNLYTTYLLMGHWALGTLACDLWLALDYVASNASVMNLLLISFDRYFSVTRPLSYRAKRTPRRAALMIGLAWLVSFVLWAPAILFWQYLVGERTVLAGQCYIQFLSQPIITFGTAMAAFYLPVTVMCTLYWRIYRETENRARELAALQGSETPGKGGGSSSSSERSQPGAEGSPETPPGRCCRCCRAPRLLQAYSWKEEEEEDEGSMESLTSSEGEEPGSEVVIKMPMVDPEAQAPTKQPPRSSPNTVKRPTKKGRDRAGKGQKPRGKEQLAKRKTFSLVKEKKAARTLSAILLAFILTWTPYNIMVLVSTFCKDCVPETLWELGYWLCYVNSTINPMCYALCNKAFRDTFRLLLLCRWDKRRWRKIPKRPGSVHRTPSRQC
Type: functional, cell-based
PROPERTY_MEASURED: AC50

C[C@@H](CN1CC(=O)NC(=O)C1)N1CC(=O)NC(=O)C1 [DEXRAZOXANE] : > 30 µM

Noted for CC1(C)C[C@@H]1C(=O)N/C(=C\CCCCSC[C@H](N)C(=O)O)C(=O)O [CILASTATIN] : its AC50 reads > 30 µM

Noted for [H]/N=C(/N)NS(=O)(=O)c1ccc(N)cc1 [SULFAGUANIDINE] : its AC50 reads > 30 µM
